Measured IC50, listed per entry for reference.
target: PSG G335A (PSD-95); test: FP displacement (competition) of FITC-15 AA CRIPT by library peptide, IC50 and Ki; conditions: read-out: IC50 (µM), PSG G335A; FP displacement of FITC-15 AA CRIPT probe by acetylated PSD library peptide

Example entries begin here.
Compound structure	IC50
CC[C@H](C)[C@H](NC(=O)[C@@H]1CCCN1C(=O)[C@H](Cc1ccc(O)cc1)NC(C)=O)C(=O)NCC(=O)NCC(=O)N[C@@H](CO)C(=O)N[C@@H](CC(C)C)C(=O)N[C@@H](CC(N)=O)C(=O)N[C@@H](CO)C(=O)N[C@H](C(=O)N[C@H](C(=O)N[C@@H](CC(=O)O)C(=O)N[C@@H](CO)C(=O)N[C@@H](C)C(=O)N[C@@H](CC(C)C)C(=O)O)[C@@H](C)O)[C@@H](C)O	233 µM
CC[C@H](C)[C@H](NC(=O)[C@H](CO)NC(=O)[C@@H](NC(=O)[C@@H](NC(=O)[C@@H]1CCCN1C(=O)[C@H](CC(C)C)NC(=O)[C@H](C)NC(=O)[C@@H]1CCCN1C(=O)[C@H](Cc1ccc(O)cc1)NC(C)=O)[C@@H](C)O)C(C)C)C(=O)N[C@@H](CO)C(=O)N[C@@H](CO)C(=O)N[C@@H](CO)C(=O)N[C@@H](C)C(=O)N[C@@H](CCC(=O)O)C(=O)N[C@H](C(=O)O)C(C)C	2010 µM

Now for a further molecule.
Task item: Form field: IC50 recorded for CC[C@H](C)[C@H](NC(=O)[C@H](Cc1ccc(O)cc1)NC(=O)[C@H](CO)NC(=O)CNC(=O)[C@H](CO)NC(=O)[C@H](CCC(N)=O)NC(=O)[C@H](Cc1ccc(O)cc1)NC(C)=O)C(=O)N[C@@H](Cc1c[nH]c2ccccc12)C(=O)N[C@H](C(=O)N1CCC[C@H]1C(=O)N[C@@H](C)C(=O)N[C@@H](CCCCN)C(=O)N[C@@H](CCC(=O)O)C(=O)N[C@@H](CCCCN)C(=O)N[C@@H](CC(C)C)C(=O)O)C(C)C with PSG G335A (PSD-95) (enter value)
Reply: 1310 µM
